Hey, just so you know, these numbers are from the RNAGym collection of RNA variant scans (doi:10.1002/anie.201605470).

# reported self-cleavage; entries follow
B1: Osa-1-4 twister ribozyme (parent)
chain: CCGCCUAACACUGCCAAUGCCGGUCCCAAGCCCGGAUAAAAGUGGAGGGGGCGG

- Variants of: B1
- Test description: self-cleavage, relative activity (ratio to wild type); higher = more cleavage; co-transcriptional
Just the number.

The reported value for CCGCCUAACACGGCCAAUGCCGGUCCCAAGCCCGGAUAAAACUGGAGGGGGCGG in terms of self-cleavage is 0.06

Per the record, CCGCCUAACACUGCCAAUGCCGGUCCUAAGCCUGGAUAAAAGUGGAGGGGGCGG has self-cleavage of 0.13

Form field self-cleavage, entry CCGCCUAACACUGCCAAUGCCGGUCCCAAGCCCGGAUAAACGUGGAGGAGGCGG : 0.11

Record CCGCCUAACCCUGCCAAUGCCGGUCCCAAGCCCGGAUAAGAGUGGAGGGGGCGG , field self-cleavage: 0.04

// self-cleavage value for CCGCCUAACACUGCCAAUGCCGUUUCCAAGCCCGGAUAAAAGUGGAGGGGGCGG : 0.05

Sure, the documented self-cleavage for CCGCCUAACACUGCCAAUGCCGGUCCCAAGCCCGGAUAAAAGUGGAUGUGGCGG is 0.05

CCGCCUAACUCCGCCAAUGCCGGUCCCAAGCCCGGAUAAAAGUGGAGGGGGCGG has a reported self-cleavage of 0.02

Entry under test: CCGCCUAACACUGCCAAUGCCGGUCCCAAGCCCGGCUAGAAGUGGAGGGGGCGG . Its self-cleavage was 0.2

Measured self-cleavage of CCGCCUAAGACUGCCAAUGCCGGUCCCAAGCCCGGCUAAAAGUGGAGGGGGCGG : 0.11

Just so you know, measured self-cleavage for CCGCCUAACACUGCCAAUGCCGGACCCAAGCCCGGAUAAAAGUGGAGGGGGCUG came out at 0.06

self-cleavage reading for CCGCCUAACACUGCCAAUGCCCGUCCCAAGCCCGGAUAAAAGGGGAGGGGGCGG : 0.04

The measured self-cleavage associated with CCGCCUAACACUGCCAAUGCCGGUCCCAAGCACGGAUAAAAGUGCAGGGGGCGG reads 0.02

Lab book: self-cleavage of CCGCCUAACACUGCCAAUGCCGGUCCCACGGCCGGAUAAAAGUGGAGGGGGCGG noted as 0.02

# variant CCGCCUAACUCUGCCAAUGCCGGUCCCAAGCCCGGAUAAAAGUCGAGGGGGCGG ; its self-cleavage = 0.09

Entry CCGCCUAUCACUGCCAGUGCCGGUCCCAAGCCCGGAUAAAAGUGGAGGGGGCGG , self-cleavage reported as 0.49

Looking up CCGCCUAACACUGCCAAUGCCGGUCCCAAGCCCGGAUAAAAGUAGAUGGGGCGG , I see its self-cleavage listed as 0.12

Lab note: CCGCCUAACACUGCUAAUGCCGGUCCCAAGCCCGGAUAAAAUUGGAGGGGGCGG gave self-cleavage of 0.06

Measured self-cleavage, CCGCCUAACACUGCCAAUGCCGGUCCCAAGCCCGGUUAAAACUGGAGGGGGCGG : 0.28

self-cleavage for CCGCCUAUCACUGCCAAUGCCGGUCCCAAGCCCGGAUAAAAGUAGAGGGGGCGG is 0.27

Given item CCGCCUAACACUGCCAAUGCCGGUCCCUAGCCCGGAUAAAAGCGGAGGGGGCGG , the value recorded as its self-cleavage is 0.15

The measured self-cleavage associated with CCGCCUAACACUGCCAAUGCCGGUCCCAAGCCCGGAUAAAAGUGGAGAGGGAGG reads 0.14
